Below are IC50 measurements against Cytochrome P450 2C19 (Homo sapiens) drawn from the literature.

{"columns": ["compound", "experimental_target", "IC50"],
 "data": [
  ["C[C@@H]1Cc2c(ccc3[nH]ncc23)[C@@H](c2c(F)cc(/C=C/C(=O)O)cc2F)N1CC(C)(C)F", "Cytochrome P450 2C19 (Homo sapiens)", "> 30 µM"],
  ["Cc1cccnc1-c1ccc2c(c1)CC(NS(=O)(=O)C(C)C)C2 (stereo not given)", "Cytochrome P450 2C19 (Homo sapiens)", "> 10 µM"],
  ["C[C@@H](Cn1c(=O)[nH]/c(=N\\c2ccc(Oc3ccnc(F)c3)cc2)n(Cc2ccc(Cl)cc2)c1=O)C(=O)O", "Cytochrome P450 2C19 (Homo sapiens)", "> 20 µM"],
  ["COc1ncc2cc1NS(=O)(=O)c1cccc(c1)C(=O)NCc1cncc(c1)-c1cnc3ccc-2cn13", "Cytochrome P450 2C19 (Homo sapiens)", "> 30 µM"],
  ["O=c1n(-c2ccc(C(F)(F)C(O)(Cn3cnnn3)c3ccc(F)cc3F)nc2)cnn1C1CCCCC1 (stereo not given)", "Cytochrome P450 2C19 (Homo sapiens)", "14.6 µM"]
]}

====

Assay read-out IC50 on Cytochrome P450 2C19 (Homo sapiens, UniProt P33261); records merged from the literature.

{"columns": ["compound", "IC50"],
 "data": [
  ["CCN(CC)CCN(Cc1ccc(-c2ccc(C(F)(F)F)cc2)cc1)C(=O)Cn1cc(Cc2cnn(C)c2)c(=O)nc1SCc1ccc(F)cc1", "> 40 µM"],
  ["N[C@@H]1CCN(c2ccc(Cl)c(Cl)c2)c2ccccc21", "> 25 µM"],
  ["NC[C@H]1CC[C@H](CN(C[C@H]2Cc3ccccc3CN2)[C@H]2CCCc3cccnc32)CC1", "9.1 µM"],
  ["CN1C(=O)N(Cc2cc(Cl)ccc2F)C(=O)[C@]12C(=O)N(CC(=O)O)c1ccc(Cl)cc12", "> 10 µM"],
  ["O=c1[nH]c2ccc(C(F)(F)F)cc2c(-c2cc(Cl)ccc2O)c1CCO", "5.2 µM"],
  ["CC1CCN([C@H](c2ccc(F)cc2)c2ccc([C@@H](C)C(=O)O)cc2-c2ccc(C(F)(F)F)cc2)CC1", "> 35 µM"],
  ["CC(=O)N1c2ccc(-c3ccc(CN4CCCCC4)cc3)cc2[C@H](Nc2ccccc2)C[C@@H]1C", "20 µM"],
  ["C[C@H](NS(=O)(=O)c1ccc(-c2sc(-c3nnc(C(C)(C)O)o3)nc2C(=O)N2CCC(F)(F)CC2)c(Cl)c1Cl)C(F)(F)F", "6.7 µM"],
  ["CN(C)S(=O)(=O)NC(=O)CCCc1c(-c2ccc(F)cc2)[nH]c2ccc(C#N)cc12", "> 5 µM"],
  ["C/C(CN)=C(/F)CN(C[C@H]1Cc2ccccc2CN1)[C@H]1CCCc2cccnc21", "19 µM"],
  ["COc1ccc(C(=O)NCc2cccc(C(=O)Nc3ccc4c(c3)CNCC4)c2)cc1OC", "> 30 µM"],
  ["Cc1cc(C2=NCCN2C)cc2[nH]c(-c3c(NCC(O)c4cccc(Cl)c4)cc[nH]c3=O)nc12 (stereo not drawn)", "17 µM"],
  ["C[C@@H]1CCCN1CCCOc1ccc(-c2ccc(=O)n(-c3ncccn3)n2)cc1", "> 30 µM"],
  ["C[C@@H]1CC(=O)Nc2ncnc(N3CCN(C(=O)[C@H](CNC4C5COCC54)c4ccc(Cl)cc4)[C@@H]4C[C@@H]43)c21 (stereo partly drawn)", "> 30 µM"],
  ["COc1cc(OC)c(Cl)c(NC(=O)N(C)c2cc(Nc3cccc(CN(C)C)c3)ncn2)c1Cl", "1.4 µM"],
  ["Cc1cccc(Cc2nc3cc(O[C@H]4CC[C@@H](C(=O)O)CC4)ccc3n2C)c1", "> 20 µM"],
  ["CCCCN(c1cccc(-c2ccc(C(F)(F)F)cc2)c1Cl)S(=O)(=O)c1ccc(OC(C)C(=O)O)c(C)c1C (stereo not drawn)", "> 3.16 µM"],
  ["O=C(NOCCO)c1oc2ccncc2c1Nc1ccc(I)cc1F", "> 10 µM"]
]}

====

Across several studies, compounds have been characterized by their log10 IC50 on Cytochrome P450 2C19 (Homo sapiens); a selection follows.
experimental_endpoint: log10 IC50 (log10 of the value in µM)

{"columns": ["compound", "log10 IC50"],
 "data": [
  ["Cc1onc(-c2ccc(F)cc2)c1COc1ccc2c(n1)CCN(C(=O)CS(C)(=O)=O)C2", 1.16],
  ["CC(C)(O)CN1C[C@H](C(=O)Nc2ccc(Cl)cc2)[C@@H](c2ccc(/C=C/C(=O)Nc3ccccc3N)cc2)C1 (racemic)", 0.85],
  ["Cc1n[nH]c2ccc(-c3nnc(C)n3Cc3ccc(C(F)(F)F)cc3)cc12", 1.49],
  ["O=c1onc2n1-c1ccccc1SC2(OCC(F)(F)F)c1ccc(Br)cc1 (centres undefined)", 1.03],
  ["O/N=C/c1ccc(-c2cccnc2)s1", 1.57],
  ["CCN[C@@H]1CCC=C(c2ccc(F)cc2)[C@H]1COc1cc(F)c(S(=O)(=O)Nc2nccs2)cc1Cl.Cl (racemic)", 0.18],
  ["O=C(O)CN(Cc1cccc(-c2ccccc2OC(F)(F)F)c1)S(=O)(=O)c1ccc(OC(F)F)cc1", 1.60],
  ["CCc1nc(-c2ccc(OC)cc2)n(-c2cccc(C(=O)NCCCCn3nccn3)c2)n1", 1.27]
]}

====

Ok so here's the combined literature set: IC50 for Cytochrome P450 2C19 (Homo sapiens).

{"columns": ["smiles_data", "experimental_target", "IC50"],
 "data": [
  ["NC(=O)c1sc2ncccc2c1N", "Cytochrome P450 2C19 (Homo sapiens)", "> 30 µM"],
  ["CC(C)c1noc(C2CCN(c3ncnc4c(-c5ccc(S(C)(=O)=O)cc5)csc34)CC2)n1", "Cytochrome P450 2C19 (Homo sapiens)", "3.68 µM"],
  ["Cc1cc([C@H]2C[C@H]3[C@@H](C)SC(N)=N[C@@]3(c3ccc(F)cc3F)CO2)on1", "Cytochrome P450 2C19 (Homo sapiens)", "> 30 µM"],
  ["CN1CCc2ccc(NS(=O)(=O)c3ccc(-c4ccc(Cl)cc4)cc3)cc2CC1", "Cytochrome P450 2C19 (Homo sapiens)", "16 µM"],
  ["COC(=O)C1CCN(C(=O)c2ccc(CS(=O)(=O)c3ccc4nc(N)sc4c3)cc2)CC1", "Cytochrome P450 2C19 (Homo sapiens)", "< 10 µM"]
]}

====

Several publications report IC50 on Cytochrome P450 2C19 (Homo sapiens, UniProt P33261); those values are gathered here.

{"columns": ["compound", "IC50"],
 "data": [
  ["COc1ccc(CN(Cc2ccc(Cl)c(Cl)c2)C(=O)c2ccc3nc(N)sc3c2)cc1OC", "< 10 µM"],
  ["CC(C)(C)Cn1ncn(-c2ccc(C(F)(F)C(O)(Cn3cnnn3)c3ccc(F)cc3F)nc2)c1=O (stereo not drawn)", "20 µM"],
  ["CN(O)C(=O)c1cc2c(CN3CCC[C@H]3C(N)=O)cn(Cc3ccc(F)cc3)c2cn1", "> 30 µM"],
  ["C[C@@H](O)c1nc2cnc3[nH]ccc3c2n1[C@H]1CC[C@H](CCC#N)CC1", "> 10 µM"],
  ["C[C@]1(CS(=O)(=O)N2CCC(Oc3ccc(OCc4ccccn4)cc3)CC2)NC(=O)NC1=O", "> 10 µM"],
  ["O=S1(=Nc2ccc(-c3ccc(-c4nc5cc(O[C@@H]6CO[C@H]7[C@@H]6OC[C@H]7O)[nH]c5cc4F)cc3)cc2)CCCC1", "3.7 µM"],
  ["Cc1cc([C@H]2C[C@H]3CSC(N)=N[C@@]3(c3ccc(F)cc3F)CO2)on1", "> 30 µM"],
  ["COc1cnc(C(=O)Nc2cc(F)c(F)c([C@]3(C)C[C@@H](c4c(C)noc4C)SC(N)=N3)c2)cn1", "> 20 µM"]
]}

====

Compiled record: IC50 values for Cytochrome P450 2C19 (Homo sapiens) across several sources.
experimental_endpoint: IC50 (nM)

{"columns": ["compound", "uom", "inequality_symbol", "recorded_number"],
 "data": [
  ["Cc1coc([C@H]2C[C@H]3[C@@H](CF)SC(N)=N[C@@]3(c3ccc(F)cc3F)CO2)n1", "nM", ">", 30000],
  ["Cc1cc2c(F)c(Oc3ncnn4cc(OC[C@@H](C)OC(=O)C(C)N)c(C)c34)ccc2[nH]1 (single isomer, unassigned; 8)", "nM", "=", 2100],
  ["Cc1ccc(OCCNc2nc(Nc3cc(C)[nH]n3)cc(C)c2C#N)c(C)n1", "nM", "=", 1700],
  ["Cc1ccc2c(c1)[C@]1(C[C@H]1c1ccc3c(/C=C/c4ccc(CN5CCOCC5)cc4)n[nH]c3c1)C(=O)N2", "nM", "=", 1200],
  ["COc1cc(OC(C)C)cc(S(=O)(=O)c2ccc3c(c2)O[C@H]2CNCC[C@@H]32)c1.Cl (single isomer, unassigned; enantiomer 1)", "nM", ">", 22900],
  ["Cc1cccc2nc(C(=O)N[C@H]3CC[C@@H](NC(=O)c4cc(F)cnc4Oc4cccc(-c5ccc(CN6C[C@@H](C)N[C@@H](C)C6)cc5)c4)CC3)cn12", "nM", ">", 1000],
  ["CC(C)S(=O)(=O)N[C@H]1Cc2ccc(-c3ccc(F)cn3)cc2C1", "nM", ">", 10000]
]}
